# systemUnderTest: T1, chimeric C10orf54: human IgV with mouse STALK (construct CC5) (human/mouse chimera)
# T1 construct: also called C10orf54 Construct 5; hsIGVmmSTALK
# T1 chain: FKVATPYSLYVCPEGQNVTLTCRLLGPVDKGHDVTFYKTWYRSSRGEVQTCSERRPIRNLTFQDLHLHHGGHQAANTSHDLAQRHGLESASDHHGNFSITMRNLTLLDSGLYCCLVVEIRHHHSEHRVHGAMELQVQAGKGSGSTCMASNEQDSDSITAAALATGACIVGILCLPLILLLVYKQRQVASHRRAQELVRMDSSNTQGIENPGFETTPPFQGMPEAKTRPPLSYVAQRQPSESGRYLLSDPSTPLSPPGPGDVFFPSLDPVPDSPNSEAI
# assayOverview: flow cytometry, transfected 293t cells, 2 ug/ml; stain = MFI >=20-fold over isotype control
assayEndpoint: binding result

For the binder shown here, murine monoclonal antibody 5B (antibody, V domains shown, Mouse hybridoma antibody) VH: QVQLQQSGAELVRPGVSVKISCKGSGYTFTDYGMHWVKQSHAKSLEWIGIIDTYYGDATYNQKFKGKATMTVDKSSSTAYMELARLTSEDSAIYYCARRAGNAMDYWGQGTSVTVSS VL: NIVMTQTPKFLLVSAGDRVTITCKASQSVSNDVAWYQQKPGQSPKLLIYYASNRYTGVPDRFTGSGYGTDFTFTISTVQAEDLAVYFCQQDYSSPRTFGGGTKLEIK , give the reported binding result.
binds
